EC50 values by entry
# Test system: Streptococcus
# protocol.description: Group A Streptococcus viability loss, dose response, counter-screen for streptokinase expression inhibitor project, luminescence, BacTiterGlo (AID 1915);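 further: potency for reduction of bacterial viability or growth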
# Type: functional, organism-based
Calls of active or inactive are those of the source. No stated cut-off is given here; in the data, actives have a measured EC50 and inactives only a lower limit.

- molecule: "O=c1cc(-c2ccccc2Cl)oc2c(NS(=O)(=O)c3cc(Cl)cc(Cl)c3O)ccc(O)c12"
  system.under.test: "Streptococcus"
  EC50: "2.26 µM (active)"
- molecule: "Cc1ccc(C(=O)/C=C(\\O)C(=O)NC23CC4CC(CC(C4)C2)C3)cc1"
  system.under.test: "Streptococcus"
  EC50: "> 150 µM (not active)"
- molecule: "CCN(CC)S(=O)(=O)c1ccc(N2CCOCC2)c(NC(=O)C2CSC3(C)CCC(=O)N23)c1 (centres undefined)"
  system.under.test: "Streptococcus"
  EC50: "> 150 µM (not active)"
- molecule: "COc1ccc(CCNC(=O)c2cccc(NS(=O)(=O)c3ccccc3F)c2)cc1OC"
  system.under.test: "Streptococcus"
  EC50: "> 150 µM (not active)"

// data source = ChEMBL document CHEMBL1201862
